assay-notes: Clearance in Wistar rat at 3 mg/kg, iv by LC/MS/MS analysis
Assay type: ADME, organism-based
reported-conditions: in vivo
Let's look at some compounds and their measured clearance.
Give just the number in mL/min/kg; leave the unit off.

- compound: "COc1ccc(N2CCOCC2)c2sc(NC(=O)C(C)(C)Oc3ccc(F)cc3)nc12"
  clearance (mL/min/kg): 15

With those in mind, consider the next compound.
q: What does the data say about its clearance? Entry: COc1ccc(N2CCOCC2)c2sc(NC(=O)C3(C)CCC(C)(O)CC3)nc12 (stereo not given)
a: 32

* * *

Let's look at some compounds and their measured clearance.
System: Rattus norvegicus
assay-notes: Clearance in Wistar rat at 3 mg/kg, iv by LC/MS/MS analysis relative to hepatic blood flow
Type: ADME, organism-based
reported-conditions: in vivo

- compound: "CCN(CC)C1CCC(C)(C(=O)Nc2nc3c(OC)ccc(N4CCOCC4)c3s2)CC1 (configuration not stated)"
  clearance: "60 to 65%"

With those in mind, consider the next compound.
q: What does the data say about its clearance? Entry: COc1ccc(N2CCOCC2)c2sc(NC(=O)C3(C)CCC(C)(O)CC3)nc12 (configuration not stated)
a: 60 to 65%
